Origin of the recorded values: PubChem BioAssay (NCATS)

experiment: qHTS profiling of the MIPE4 collection as inhibitors of Plasmodium falciparum (DD2) proliferation (AID 743345); conditions: P. falciparum Dd2 in erythrocytes, SYBR Green DNA, 72 h; at 28.5 µM (top of the series) unless noted
reported property: parasite growth remaining, % of DMSO control (lower = more inhibition)

Value lookup for parasite growth remaining, % of DMSO control (lower = more inhibition); key = "Clc1ccccc1C(c1ccccc1)(c1ccccc1)n1ccnc1"
6.19%

----------
test: qHTS drug screen for cell cycle checkpoint inhibitors in PARPi-resistant BRCA-mutant ovarian cancer cell lines. (AID 1963452); settings: PEO1/OlaR viability, CellTiter-Glo luminescence, 96 h; measured here: PEO4 Z-AUC; stronger effect = lower value
The label is 1 for Z-AUC below 0.7 and -1 for Z-AUC equal to or exceeding 0.7.

{"molecule": "NCCS(=O)(=O)O", "category label": 1}
{"molecule": "CN1C2CCC1CC(OC(=O)C(CO)c1ccccc1)C2 (stereo not given)", "category label": 1}

Consider the molecule CC(C)NCC(O)c1ccc(O)c(O)c1 (stereo not given) . Is its Z-AUC strictly less than 0.7?
-1

Repeat with CC(C)(Oc1ccc(C2CC2(Cl)Cl)cc1)C(=O)O (stereo not given)
1

Repeat with "COc1cc2c(c(OC)c1OC)-c1ccc(OC)c(=O)cc1[C@@H](NC(C)=O)CC2"
1
